# ASSAY_NOTES: Pharmacokinetics on single dose in rats (iv and po)
# Type: in vivo, male SD rats
# MEASUREMENT_SETUP: male, rat, plasma; SD rats, iv 1 mg/kg
ATTRIBUTE_MEASURED: clearance (mL/min/kg)
Please give a number only; it is taken to be in mL/min/kg.

Fill in: clearance of C=CCn1c(=O)c2cnc(Nc3ccc(N4CCN(C)CC4)cc3)nc2n1-c1cccc(C(C)(C)O)n1 [AZD1775, reference compound] is ___
148

* * *

# ASSAY_NOTES: Pharmacokinetics on single dose in mice (iv and po)
# Type: in vivo, male ICR mice
# MEASUREMENT_SETUP: male, mouse, plasma; ICR mice, iv 1 mg/kg
ATTRIBUTE_MEASURED: AUC(0-t) (µg·h/mL)
Give your result in µg·h/mL as a bare value.

# query: AUC(0-t) of entry C=CCn1c(=O)c2cnc(Nc3ccc(N4CCN(C)CC4)cc3)nc2n1-c1cccc(C(C)(C)O)n1 [AZD1775, reference compound]
0.116

* * *

# ASSAY_NOTES: Metabolic stability in liver microsomes, rat
# Type: in vitro ADME
# MEASUREMENT_SETUP: read-out: T1/2 liver microsomes Rat
ATTRIBUTE_MEASURED: half-life at 1 µM (min)
Number in min, nothing else.

Any idea what half-life at 1 µM was measured for C=CCn1c(=O)c2cnc(Nc3ccc(N4CCN(C)CC4)cc3)nc2n1-c1cccc(C(C)(C)O)n1 [AZD1775, reference compound] ?
38.1

* * *

# Tested on: HUVEC cells
# ASSAY_NOTES: Cell Titer-Glo anti-proliferation, normal cells HUVEC
# Format: cell-based
pIC50: −log10 of the molar value.
# pIC50 values compiled below

C=CCn1c(=O)c2cnc(Nc3ccc(N4CCC5(CCN(C)CC5)CC4)cc3)nc2n1-c1ccc2c(n1)[C@H](O)C1(CC2)CC1 [Compound 37b] | < 5.00
C=CCn1c(=O)c2cnc(Nc3ccc(N4CCC5(CCN(C)CC5)CC4)c(C)c3)nc2n1-c1ccc2c(n1)[C@H](O)C1(CC2)CC1 (single isomer, unassigned) [Compound 61b] | 5.35
C=CCn1c(=O)c2cnc(Nc3ccc(N4CCN(C(C)C)CC4)cc3)nc2n1-c1ccc2c(n1)[C@@H](O)C1(CC2)CC1 (single isomer, unassigned) [Compound 57b] | < 5.00
C=CCn1c(=O)c2cnc(Nc3ccc(N4CCC5(CCN(C)CC5)CC4)cc3)nc2n1-c1ccc2c(n1)[C@](C)(O)C1(CC2)CC1 (single isomer, unassigned) [Compound 44a] | 5.99
C=CCn1c(=O)c2cnc(Nc3ccc(N4CCN(C)CC4)cc3)nc2n1-c1ccc2c(n1)[C@@](O)(CC)CC2 [ZnC3, reference compound] | < 5.00

Next up:
State the recorded pIC50 for this entry: C=CCn1c(=O)c2cnc(Nc3ccc(N4CCN(C)CC4)cc3)nc2n1-c1ccc2c(n1)C(O)(C(F)(F)F)C1(CC1)C2 (centres unmarked)
< 5.00

* * *

# ASSAY_NOTES: Saturated solubility in buffer at different pH
# Assay type: physicochemical
# MEASUREMENT_SETUP: buffer solution, aqueous buffer, thermodynamic from solid; pH 7.4, 37° C., 24 h; read-out: Saturated solubility pH 7.4
ATTRIBUTE_MEASURED: solubility at 24 h (µg/mL)
Quick reminder: number only, in µg/mL, skip the unit.

Quick check: solubility at 24 h of C=CCn1c(=O)c2cnc(Nc3ccc(N4CCN(C)CC4)cc3)nc2n1-c1cccc(C(C)(C)O)n1 [AZD1775, reference compound] ?
20
